System: croton oil-induced inflammation in rats and mice
Experiment: croton oil-induced inflammation (ear edema)
Format: in vivo
Settings: 30 mg/kg, systemically two hours before croton oil; ear weight after 16-24 hours
For each entry below, report its Edema inhibition with 30 mg/kg value.
One number for each entry, in %.

Could you tell me Edema inhibition with 30 mg/kg for each of these compounds? They are listed below.
1. Cc1noc(=O)c2ccc(NC(=O)C(O)(CC(C)(C)c3ccc(F)cc3Cl)C(F)(F)F)cc12 (single isomer, unassigned; (+))
2. C[C@]12C=CC(=O)C=C1CC[C@@H]1[C@@H]2[C@@H](O)C[C@@]2(C)[C@H]1CC[C@]2(O)C(=O)CO [Prednisolone, reference compound]
3. Cc1noc(=O)c2ccc(NC(=O)C(O)(CC3(c4cc(F)ccc4Cl)CC3)C(F)(F)F)cc12 (single isomer, unassigned; (+))
4. Cc1noc(=O)c2ccc(NC(=O)C(O)(CC3(c4cc(F)ccc4Cl)CCC3)C(F)(F)F)cc12 (single isomer, unassigned; (+))
5. Cc1noc(=O)c2ccc(NC(=O)C(O)(CC3(c4ccccc4C(F)(F)F)CCC3)C(F)(F)F)cc12 (single isomer, unassigned; (+))
6. Cc1noc(=O)c2ccc(NC(=O)C(O)(CC3(c4cc(F)ccc4C(F)(F)F)CCC3)C(F)(F)F)cc12 (single isomer, unassigned; (+))

92
84
106
78
81
86
